src = patent US8858995B2

MEASUREMENT_NOTES: Plasma, liver and brain curcumin levels, implants versus diet (HPLC-fluorescence)
Assay type: in vivo, ACI rats
CONDITION_DESCRIPTION: female, ACI (Augustus Copenhagen Irish), rat, liver (against plasma), other: both routes (subcutaneous implants, diet); via both routes
Text: The in vivo cumulative release was studied in female Augustus Copenhagen Irish (ACI) rats following an approved protocol from an Institutional Animal Care and Use Committee (IACUC). […] All the animals were provided food and water ad libitum. Sham and curcumin implants were subcutaneously grafted at the back of the rats and were monitored for their diet intake and body weight. […]
RECORDED_METRIC: Kp

Look up Kp for this molecule: COc1cc(/C=C/C(=O)CC(=O)/C=C/c2ccc(O)c(OC)c2)ccc1O [curcumin]
10 to 20

* * *

MEASUREMENT_NOTES: Tissue curcuminoid levels after coated implants (UPLC)
Format: in vivo, A/J mice
CONDITION_DESCRIPTION: female, A/J, mouse, in vivo
RECORDED_METRIC: concentration at 21 days (ng/g)
Numeric only. Scale: ng/g

Look up concentration at 21 days for this compound: COc1cc(/C=C/C(O)=C/C(=O)/C=C/c2ccc(O)cc2)ccc1O
1

* * *

MEASUREMENT_NOTES: Tissue curcuminoid levels after coated implants (UPLC)
Type: in vivo, A/J mice
CONDITION_DESCRIPTION: female, A/J, mouse, brain, subcutaneous, 2 1.5 cm implants (60 mg/implant, approximately 10% drug load); delivered individually by implant, 21 days; read-out: level in brain tissue
Procedure: Briefly, liver and brain tissues (500 and 400 mg, respectively) from each animal were homogenized in 3 ml PBS (pH 7.4) containing 200 μl of 0.5 M sodium acetate, and extracted with ethyl acetate. After evaporation of the pooled extracts, the residue was reconstituted in 100 μl acetonitrile and analyzed by UPLC using Shimadzu UPLC system (Kyoto, Japan), with a Shim-Pack XR-ODS II reverse phase column (Shimadzu; 150×3.0 mm i.d., 2.2 μm).
RECORDED_METRIC: concentration at 21 days (ng/g)
Numeric only. Scale: ng/g

Look up concentration at 21 days for this molecule: O=C(/C=C/c1ccc(O)cc1)CC(=O)/C=C/c1ccc(O)cc1
6.4

* * *

MEASUREMENT_NOTES: Plasma, liver and brain curcumin levels, implants versus diet (HPLC-fluorescence)
Format: in vivo, ACI rats
CONDITION_DESCRIPTION: female, ACI (Augustus Copenhagen Irish), rat, subcutaneous, 2 2-cm curcumin implants; implants (two 2-cm); day 1; pooled plasma
From the text: The in vivo cumulative release was studied in female Augustus Copenhagen Irish (ACI) rats following an approved protocol from an Institutional Animal Care and Use Committee (IACUC). […] All the animals were provided food and water ad libitum. Sham and curcumin implants were subcutaneously grafted at the back of the rats and were monitored for their diet intake and body weight. […]
RECORDED_METRIC: concentration at 1 day (ng/mL)
Numeric only. Scale: ng/mL

Look up concentration at 1 day for this compound: COc1cc(/C=C/C(=O)CC(=O)/C=C/c2ccc(O)c(OC)c2)ccc1O
3.3
